experimental-system: Endonuclease III-like protein 1 (Homo sapiens)
Sequence (whole entry): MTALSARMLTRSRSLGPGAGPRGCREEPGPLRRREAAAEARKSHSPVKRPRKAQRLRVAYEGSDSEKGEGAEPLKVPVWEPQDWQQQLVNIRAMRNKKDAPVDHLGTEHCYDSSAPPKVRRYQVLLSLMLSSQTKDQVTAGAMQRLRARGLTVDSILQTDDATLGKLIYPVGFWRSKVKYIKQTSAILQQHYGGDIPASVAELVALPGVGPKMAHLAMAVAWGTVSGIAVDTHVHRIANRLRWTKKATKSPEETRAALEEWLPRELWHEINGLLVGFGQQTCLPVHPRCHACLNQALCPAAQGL
condition: Compound Concentration 10.0 uM, Hit No
Description: Inhibition of NTHL1 by quantifying inhibition of NTHL1-mediated cleavage and dissociation of quenched duplex DNA oligonucleotides, measured as fluorescence at 594 nm.
Listing of recorded inhibition by entry.
Your answer should be a plain number; it is taken to be in %.

| chemical-smiles | inhibition [%] |
| --- | --- |
| O=C1COc2nccc(-c3ccccc3F)c2CN1Cc1cc(C(F)(F)F)cc(C(F)(F)F)c1 | 2.66 |

Task: Tell me its inhibition given CNc1nc(NCc2ccc(NS(C)(=O)=O)cc2Cl)cc(-c2ccccn2)n1 as the entry.
Result: -9.07

Task: Tell me its inhibition given CNc1nc(-c2ccc3c(N)n[nH]c3c2)cc(N2C[C@@H](C(=O)NC3CCCCC3)CC[C@H]2C)n1 as the entry.
Result: -2

Task: Tell me its inhibition given CC(C)(O)CNc1ncc(-c2ccnc(Nc3ccnc(Cl)c3)n2)c(CC2CC2)n1 as the entry.
Result: 5.67

Task: Tell me its inhibition given CC[C@@H]1CN2C(=O)N(C)c3nc(-c4ccccc4)[nH]c3C2=N1 as the entry.
Result: 7.79

###

experimental-system: Uracil-DNA glycosylase (Homo sapiens) (UniProt P13051);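 further: UNG excision on a quenched double-stranded DNA oligo probe, with APE1 added for strand incision and turnover, read as fluorescence at 594 nm as strands separate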
Sequence (P13051 whole entry): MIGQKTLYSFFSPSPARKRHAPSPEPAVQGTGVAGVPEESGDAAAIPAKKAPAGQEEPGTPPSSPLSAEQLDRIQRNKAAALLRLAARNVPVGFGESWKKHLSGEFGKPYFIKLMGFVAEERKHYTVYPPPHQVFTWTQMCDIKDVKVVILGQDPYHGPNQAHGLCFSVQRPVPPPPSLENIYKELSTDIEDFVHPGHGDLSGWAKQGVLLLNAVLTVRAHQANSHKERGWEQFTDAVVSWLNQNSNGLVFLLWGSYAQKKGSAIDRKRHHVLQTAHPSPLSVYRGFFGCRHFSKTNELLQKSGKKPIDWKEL
condition: Compound Concentration 10.0 uM, Hit No
Description: Inhibition of UNG by quantifying inhibition of UNG-mediated cleavage and dissociation of quenched duplex DNA oligonucleotides, measured as fluorescence at 594 nm. To generate a functional strand incision and increase turn-over this assay is coupled to APE1.
Listing of recorded inhibition by entry.
Your answer should be a plain number; it is taken to be in %.

Below are worked cases with known answers.
| chemical-smiles | experimental-system | readout-number |
| --- | --- | --- |
| CNC(=O)COc1cc2cc(Nc3nc(N4C[C@H](C)C[C@H](C)C4)ncc3Cl)ccc2n(C)c1=O | Uracil-DNA glycosylase (Homo sapiens) (UniProt P13051) | 2.34 |
| C[C@@H]1CN(c2cc(-c3nn(C)c4ccc(OC5(C)CC5)cc34)ncn2)C[C@H](C)O1 | Uracil-DNA glycosylase (Homo sapiens) (UniProt P13051) | 4.62 |
| COc1ccc(S(=O)(=O)N2C(=O)[C@@](c3ccccc3OC)(N3C[C@H](O)C[C@H]3C(=O)N(C)C)c3cc(Cl)ccc32)c(OC)c1 | Uracil-DNA glycosylase (Homo sapiens) (UniProt P13051) | 1.21 |
| C[C@H](CO)Nc1nc(SCc2cccc(Cl)c2F)nc2[nH]c(=O)sc12 | Uracil-DNA glycosylase (Homo sapiens) (UniProt P13051) | -8.73 |

# evaluate next
Task: Tell me its inhibition given CC1(C)C(=O)C(C)(C)c2cc(C(=O)Nc3ccc(C(=O)O)cc3)ccc21 as the entry.
Result: -1.52

###

experimental-system: Endonuclease III-like protein 1 (Homo sapiens) (UniProt P78549);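 further: enzyme assay tracking NTHL1 cutting and release of a quenched double-stranded DNA oligo substrate, read as fluorescence at 594 nm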
Sequence (whole entry): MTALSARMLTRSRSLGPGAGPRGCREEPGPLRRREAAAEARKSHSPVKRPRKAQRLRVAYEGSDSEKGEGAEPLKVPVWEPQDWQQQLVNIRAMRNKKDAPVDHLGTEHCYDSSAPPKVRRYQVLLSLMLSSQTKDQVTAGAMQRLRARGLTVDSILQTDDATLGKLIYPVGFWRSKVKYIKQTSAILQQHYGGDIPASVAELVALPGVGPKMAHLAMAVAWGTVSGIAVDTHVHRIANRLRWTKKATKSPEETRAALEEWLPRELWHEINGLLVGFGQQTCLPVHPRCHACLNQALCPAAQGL
condition: Compound Concentration 10.0 uM, Hit No
assay-metric: inhibition (%)
Your answer should be a plain number; it is taken to be in %.

| compound | unit-name | inhibition |
| --- | --- | --- |
| CC(C)OC(=O)C1=CN(C(=O)c2ccc(F)c(F)c2)CC(C)(C)c2c1[nH]c1ccccc21 | % | -1.95 |

Task: Tell me its inhibition given CCC(=O)N[C@@H]1CC[C@H](C(=O)N(C)c2ccc(-c3nc4ccccc4o3)cc2)C1 as the entry.
Result: 3.97

Task: Tell me its inhibition given COc1cc(OC)c(NC(=O)Nc2cc(C)on2)cc1Cl as the entry.
Result: 17.9

Task: Tell me its inhibition given O=C(NCc1ccc(F)cc1)N1CCN2C(=O)OC(c3ccccc3)(c3ccccc3)C2C1 (stereo not given) as the entry.
Result: -0.275

Task: Tell me its inhibition given Cn1cncc1[C@@](O)(COc1ccc(C#N)cc1-c1ccc(OC(F)(F)F)cc1)c1ccc(C#N)cc1 as the entry.
Result: 7.26

Task: Tell me its inhibition given NCCCNCCCCNCCC(=O)NCCCCCNC(=O)[C@H](CC(N)=O)NC(=O)Cc1ccc(O)cc1O as the entry.
Result: -0.258

Task: Tell me its inhibition given COc1cccc2c1c(NS(=O)(=O)c1ccc(Cl)s1)nn2Cc1cccc(CNC(=O)C(C)(C)O)c1 as the entry.
Result: 8

Task: Tell me its inhibition given O=C(O)CCCc1cc2cc(Cl)ccc2n1S(=O)(=O)c1ccc2ncsc2c1 as the entry.
Result: 1.34

Task: Tell me its inhibition given CCCCN(CCCC)C(=O)CN1C[C@@H](c2cc(OC)c3c(c2)OCO3)[C@H](C(=O)O)[C@H]1CC(C)(C)CCC as the entry.
Result: -7.2

Task: Tell me its inhibition given N=C(N)NCCSC(=N)N as the entry.
Result: -1.08

Hey, just so you know, these numbers are from ChEMBL document CHEMBL5665443.
